Each item that follows carries a reported melting point.
Structures can show the parent of a compound that is named as a salt.

compound	melting point
CN1CCN(c2ccccc2OC2CCCN(c3ccc(C(F)(F)F)cc3)C2=O)CC1 (centres unmarked) [Example 7]	81 to 110 °C
CN1CCN(c2ncccc2OC2CCN(c3ccc(OC(F)(F)F)cc3)C2=O)CC1 (centres unmarked) (as salt: salt) [Example 16]	113 to 140 °C
CN1CCN(c2ncccc2OC2CCN(c3ccc(C(C)(C)C)cc3)C2=O)CC1 (centres unmarked) (as salt: salt) [Example 9]	131 to 164 °C
CN1CCN(c2ncccc2OC2CCN(c3ccc(Br)cc3)C2=O)CC1 (centres unmarked) (as salt: hydrochloride) [Example 8]	72 to 82 °C
CN1CCN(c2ncccc2OC2CCN(c3ccc(-c4ccon4)cc3)C2=O)CC1 (centres unmarked) (as salt: salt) [Example 21]	220 °C
CN1CCN(c2ncccc2OC2CCN(c3ccc(N4CCCCC4=O)cc3)C2=O)CC1 (centres unmarked) [Example 11]	111 to 149 °C

Ask | May I ask what melting point has been recorded for CN1CCN(c2ccccc2OC2CCCN(c3ccc(N4CCCC4=O)cc3)C2=O)CC1 (centres unmarked) [Example 5] ?
Reply | 68 to 75 °C

Ask | Now consider CN1CCN(c2ccccc2OC2CCN(c3ccc(C(F)(F)F)cc3)C2=O)CC1.Cl (centres unmarked) .
Reply | 137 to 162 °C
